Catalogue of molecules with associated inhibition of SARS-CoV-2 cytopathic effect
Test system: Vero E6 infected with SARS-CoV-2
experimentalDetails: inhibition of SARS-CoV-2 cytopathic effect; higher = more antiviral protection, active = above 15
conditionInfo: 100 nM; 48 h
reportedProperty: inhibition of SARS-CoV-2 cytopathic effect (%)

- molecule: "NCCNc1ccc(NCCN)c2c1C(=O)c1ccncc1C2=O"
  numericReadout: -1.63
- molecule: "COc1c(C)c(C(=O)c2ccc(N)c(C(=O)O)c2)n2ccccc12"
  numericReadout: 0.21
- molecule: "Cl/C=C\\C[N+]12CN3CN(CN(C3)C1)C2 [1-((Z)-3-chloroallyl)-1,3,5,7-tetraazaadamantan-1-ium]"
  numericReadout: -0.23
- molecule: "Cc1cccc(Nc2ccncc2S(=O)(=O)NC(=O)NC(C)C)c1 [torasemide]"
  numericReadout: -0.51
- molecule: "CCCC[C@H](NC(C)=O)C(=O)N[C@H]1CC(=O)NCCCC[C@@H](C(=O)O)NC(=O)[C@H](Cc2c[nH]c3ccccc23)NC(=O)[C@H](CCCNC(=N)N)NC(=O)[C@@H](Cc2ccccc2)NC(=O)[C@H](Cc2c[nH]cn2)NC1=O [bremelanotide]"
  numericReadout: -0.14
- molecule: "CC(C)(C)C(=O)OCOC(=O)[C@@H]1N2C(=O)C[C@H]2S(=O)(=O)C1(C)C"
  numericReadout: -7.15
- molecule: "CCCCN(CCCC)CC(O)c1cc(Cl)cc2c1-c1ccc(Cl)cc1/C2=C/c1ccc(Cl)cc1 (centres undefined)"
  numericReadout: 2.25
- molecule: "O=C(CCCCCCC(=O)Nc1cccnc1)NO [pyroxamide]"
  numericReadout: 0.72
- molecule: "CC1CCc2cc(F)cc3c(=O)c(C(=O)O)cn1c23 (centres undefined)"
  numericReadout: -0.95
- molecule: "Cc1cc2c(s1)Nc1ccccc1N=C2N1CCN(C)CC1"
  numericReadout: -0.41
- molecule: "C[N+](C)(C)CCOP(=O)(O)OC[C@H](O)CO [choline-alfoscerate]"
  numericReadout: -3.48
- molecule: "COc1cc(C[C@H]2c3cc(OC)c(OC)cc3CCN2C)c(Oc2cc3c(cc2OC)-c2c(OC)c(OC)cc4c2[C@H](C3)N(C)CC4)cc1OC"
  numericReadout: -0.77
- molecule: "CC(C)[N+](C)(CCC(C(N)=O)(c1ccccc1)c1ccccc1)C(C)C [isopropamide-iodide]"
  numericReadout: 2.29
- molecule: "COc1cccc2c1C(=O)c1c(O)c3c(c(O)c1C2=O)C[C@@](O)(/C(CO)=N/NC(=O)CCCCCN1C(=O)C=CC1=O)C[C@@H]3O[C@H]1C[C@H](N)[C@H](O)[C@H](C)O1"
  numericReadout: 0.6
- molecule: "CCOc1ccc(Nc2nc(-c3c(C)nc4ccccn34)cs2)cc1"
  numericReadout: -1.68
- molecule: "O=C(CCCCCCC(=O)Nc1ccccc1)NO"
  numericReadout: -0.77
- molecule: "NC/C(=C/F)CCc1ccc(F)cc1"
  numericReadout: 1.29
- molecule: "Cc1ncc(Cl)cc1NCc1ccc(C(=O)N[C@@H](CC2CCCC2)C(=O)NC2CC2)s1"
  numericReadout: -0.53
- molecule: "CC1Nc2ccc(Cl)cc2S(=O)(=O)N1 (centres undefined)"
  numericReadout: -2.37
